Tested on: Mycobacterium avium
procedure_summary: Antimycobacterial activity against isoniazid-, rifampicin-, ofloxacin-, ethambutol-resistant Mycobacterium avium 330/88 after 14 days
Assay type: functional
test_settings: 330/88, 336 h
measurement_name: MIC (µM)
Give just the numeric value; µM need not be written.

Field: MIC (Mycobacterium avium). Entry: `Nc1ccc(S(=O)(=O)Nc2nccs2)cc1` 62.5

Field: MIC (Mycobacterium avium). Entry: `Cc1cc(C)nc(NS(=O)(=O)c2ccc(NC(=O)c3cc(Cl)ccc3O)cc2)n1` 32

Field: MIC (Mycobacterium avium). Entry: `Cc1cc(NS(=O)(=O)c2ccc(NC(=O)c3cc(Cl)ccc3O)cc2)no1` 62.5

Field: MIC (Mycobacterium avium). Entry: `O=S(=O)(Nc1nccs1)c1ccc(/N=C/c2cc(Cl)ccc2O)cc1` 62.5

Field: MIC (Mycobacterium avium). Entry: `Nc1ccc(S(=O)(=O)Nc2ncccn2)cc1` 62.5

====

System: Mycobacterium kansasii
procedure_summary: Antimycobacterial activity against Mycobacterium kansasii 235/80 after 21 days
Format: functional
test_settings: 235/80, 504 h
Kindly apply the following: Y if MIC is less than 20 µM, N in every other case.

Determine if `Cc1cc(NS(=O)(=O)c2ccc(/N=C/c3cccc(Cl)c3)cc2)no1` shows MIC strictly lower than 20 µM. Y

Determine if NNC(=O)c1ccncc1 [ISONIAZID] shows MIC strictly lower than 20 µM. N

Determine if `O=S(=O)(Nc1ncccn1)c1ccc(/N=C/c2cc(Cl)ccc2O)cc1` shows MIC strictly lower than 20 µM. N

Determine if `Cc1cc(NS(=O)(=O)c2ccc(/N=C/c3cc(Cl)ccc3O)cc2)no1` shows MIC strictly lower than 20 µM. Y

Determine if `O=C(Nc1ccc(S(=O)(=O)Nc2nccs2)cc1)c1cc(Cl)ccc1O` shows MIC strictly lower than 20 µM. Y

Determine if `Cc1cc(NS(=O)(=O)c2ccc(NC(=O)c3cc(Cl)ccc3O)cc2)no1` shows MIC strictly lower than 20 µM. Y

Determine if Nc1ccc(S(=O)(=O)Nc2nccs2)cc1 [SULFATHIAZOLE] shows MIC strictly lower than 20 µM. Y

Determine if `O=S(=O)(Nc1nccs1)c1ccc(/N=C/c2cc(Cl)ccc2O)cc1` shows MIC strictly lower than 20 µM. Y

Determine if Cc1cc(C)nc(NS(=O)(=O)c2ccc(N)cc2)n1 [SULFAMETHAZINE] shows MIC strictly lower than 20 µM. N
